- Protocol Notes: differential killing of epithelial or mesenchymal cells, primary screen, imaging, PC-3E GFP, TEM4-18 mCherry, co-culture (AID 1345086);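 also: cells exposed to compound for 72 h before imaging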
- Condition Summary: imaging cell counts, measured here: epithelial PC-3E GFP cell survival, at 1 µM
Items are presented alongside their recorded normalised cell number.
Returns: the value as a bare number; no unit string appended.

* O=C(O)C(c1ccccc1)c1ccccc1 | 1.01
* COc1cc(OC)c2c(c1)OC(c1ccccc1)CC2=O (stereo not drawn) | 0.99

// switching to the query compound
### Prompt Any idea what normalised cell number was measured for CCCC1O[C@@H]2CC3C4CCC5=CC(=O)C=CC5(C)C4[C@@H](O)CC3(C)[C@]2(C(=O)CO)O1 (stereo partly drawn) ?
### Response 0.99

###

- Protocol Notes: hESC survival regulators, cell-based (AID 493140);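 also: cells exposed to compounds for four days before counting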
- Condition Summary: human embryonic stem cell survival screen; stronger effect = higher value
Items are presented alongside their recorded survival.
Returns: the value as a bare number; no unit string appended.

Example results:
• O=c1c(O)c(-c2ccc(O)cc2)oc2cc(O)cc(O)c12 = 7.5
• CC(C)N=c1cc2n(-c3ccc(Cl)cc3)c3ccccc3nc-2cc1Nc1ccc(Cl)cc1 = 11.8

### Prompt Any idea what survival was measured for "Nc1ccccc1S(N)(=O)=O" ?
### Response 5.17

### Prompt Any idea what survival was measured for "O=S(=O)(NCCNC/C=C/c1ccc(Br)cc1)c1cccc2cnccc12" ?
### Response 202

### Prompt Any idea what survival was measured for CN1CCN(C(c2ccccc2)c2ccc(Cl)cc2)CC1 (stereo unspecified) ?
### Response 1.83

### Prompt Any idea what survival was measured for "CO/N=C(/C(=O)N[C@@H]1C(=O)N2C(C(=O)O)=C(COC(N)=O)CS[C@H]12)c1ccco1" ?
### Response 3.92

### Prompt Any idea what survival was measured for CCc1cc(Cl)c(OC)c(C(=O)NCC2CCCN2CC)c1O (stereo unspecified) ?
### Response 1.5

### Prompt Any idea what survival was measured for OC(c1cc(C(F)(F)F)nc2c(C(F)(F)F)cccc12)C1CCCCN1 (stereo unspecified) ?
### Response 3.83

### Prompt Any idea what survival was measured for "Oc1cc(O)cc(/C=C/c2ccc(O)c(O)c2)c1" ?
### Response 27.6

###

- Protocol Notes: HepG2 cytotoxicity, primary screen, cytotoxicity control for P. falciparum antimalarial project, cell-based, ATP luminescence (AID 2303);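 also: 0% = DMSO wells and 100% = digitonin-killed cells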
- Condition Summary: HepG2 viability, 24-48 h, at 10 µM, stronger effect = higher value
Reported Metric: inhibition (%)
Response body: numeric value in %, unit text excluded.

- CCOC(=O)c1ccc(NC(=O)Nc2cccc(-c3cccc(-c4nc5ccc(F)cc5[nH]4)c3)c2)cc1: 85
- O=C(O)CCSc1ncnc2nc[nH]c12: 7
- O=[N+]([O-])c1ccccc1C=NNc1ccnc2ccccc12: 3
- FC(F)(F)c1ccc(N2CCCN(Cc3cccc(-c4ccccc4CNCc4ccc5c(c4)OCO5)c3)CC2)nc1: 23
- CCNc1cc(C(=O)N[C@@H](Cc2ccccc2)[C@H](O)CNC(C)CCCC(C)C)cc(N2CCCS2(=O)=O)c1 (stereo partly specified): 2

### Prompt Any idea what inhibition was measured for "CCN(CC)CCNC(=O)c1ccc(N=Cc2c(O)[nH]c3ccc(S(=O)(=O)Cc4c(Cl)cccc4Cl)cc23)cc1" ?
### Response 25

### Prompt Any idea what inhibition was measured for CCC(C)c1ccc(NC(=O)C(C)c2ccc([N+](=O)[O-])cc2)cc1 (stereo unspecified) ?
### Response 14

###

Items are presented alongside their recorded inhibition.
- Test System: L-lactate dehydrogenase (Plasmodium falciparum (isolate CDC / Honduras)) (UniProt Q27743)
- Sequence (Q27743 whole entry, looked up): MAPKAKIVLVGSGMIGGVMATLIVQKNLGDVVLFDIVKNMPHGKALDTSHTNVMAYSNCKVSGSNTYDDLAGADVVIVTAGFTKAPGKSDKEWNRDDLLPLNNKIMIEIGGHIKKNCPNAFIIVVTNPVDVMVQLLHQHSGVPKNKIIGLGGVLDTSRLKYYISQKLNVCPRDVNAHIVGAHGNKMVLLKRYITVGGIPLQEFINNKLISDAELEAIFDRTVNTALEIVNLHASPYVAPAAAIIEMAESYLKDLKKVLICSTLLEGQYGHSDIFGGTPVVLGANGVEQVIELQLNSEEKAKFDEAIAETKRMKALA
- Protocol Notes: PfLDH activity inhibition – cell lysate, 3D7 strain, counter-screen for P. falciparum growth inhibition project (AID 2304);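 also: 0% = vehicle and 100% = reference inhibitor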
- Condition Summary: P. falciparum 3D7 crude extract, LDH APAD/NBT absorbance; at 2 µM; stronger effect = higher value
Response body: numeric value in %, unit text excluded.

Example results:
• CCCCCCCCCC(=O)NCC1CC(Br)=NO1 (stereo unspecified) = -7
• CCCCN(CCCC)CCCN(CCCN(CCCC)CCCC)c1cc(C)nc(Nc2ccc(Cl)cc2)n1 = 0
• O=C(Nc1cccc(CN2CCCN(Cc3ccc(O)cc3)CC2)c1)c1ccc2ccccc2c1 = 1
• CC(=O)N(C)c1ccc(C(=O)Nc2cccc(-c3cccc(-c4nc5ccc(C(F)(F)F)cc5[nH]4)c3)c2)cc1 = -6
• Cc1cc(=O)c(-c2ccc(S(=O)(=O)c3ccc(Cl)cc3)cc2)c(C)[nH]1 = 4

### Prompt Any idea what inhibition was measured for O=C(CC1CCCC1)N(Cc1ccc(-c2ccc(CNC3Cc4ccccc4C3)cc2)cc1)CC1CCCCN1 (stereo unspecified) ?
### Response -3

###

- Protocol Notes: sensitizers of A549 cells to miR-34 induction, primary screen, imaging, A549 dox-inducible miR-34, nuclei and caspase counts (AID 1347080)
- Condition Summary: A549 miR-34 inducible, Hoechst nuclei count, 48 h; measured here: total cells without miR-34 induction
Items are presented alongside their recorded cell count.
Returns: the value as a bare number; no unit string appended.

Example results:
* C=C(NC(=O)C(=C)NC(=O)c1csc(C2=NC3c4csc(n4)C4NC(=O)c5csc(n5)C(C(C)(O)C(C)O)NC(=O)C5CSC(=N5)C(=CC)NC(=O)C(C(C)O)NC(=O)c5csc(n5)C3(CC2)NC(=O)C(C)NC(=O)C(=C)NC(=O)C(C)NC(=O)C(C(C)CC)NC2C=Cc3c(C(C)O)cc(nc3C2O)C(=O)OC4C)n1)C(N)=O (stereo not drawn) | 11100
* CC(=O)O[C@]1(C(C)=O)CCC2C3C=C(C)C4=CC(=O)CCC4(C)C3CCC21C (stereo partly drawn) | 10300
* O=C1C(Cl)=C(NCCN2CCOCC2)C(=O)c2ncccc21 | 1580

### Prompt Any idea what cell count was measured for "CCCCCCCCCCCCC[N+](C)(C)Cc1ccccc1" ?
### Response 83

### Prompt Any idea what cell count was measured for CCCN1CC(CSC)CC2c3cccc4[nH]cc(c34)CC21 (stereo not drawn) ?
### Response 9810

### Prompt Any idea what cell count was measured for "COc1ccc(C[C@H](C)NC[C@@H](O)c2ccc(O)c(NC=O)c2)cc1" ?
### Response 8440

### Prompt Any idea what cell count was measured for C#C[C@]1(O)CCC2C3CCC4=CC(=O)CC[C@@H]4C3CC[C@@]21CC (stereo partly drawn) ?
### Response 12000

### Prompt Any idea what cell count was measured for "CCC(C)(C)N=C(NC#N)Nc1cccnc1" ?
### Response 10900

### Prompt Any idea what cell count was measured for C#C[C@]1(O)CCC2C3CCC4=CC(=O)CC[C@@H]4C3CC[C@@]21C (stereo partly drawn) ?
### Response 11300

### Prompt Any idea what cell count was measured for "CC(=O)Nc1cc2ccccc2oc1=O" ?
### Response 9040

### Prompt Any idea what cell count was measured for C[C@H](CCC(=O)O)[C@H]1CCC2C3C(=O)CC4CC(=O)CC[C@]4(C)C3CC(=O)[C@@]21C (stereo partly drawn) ?
### Response 12400

### Prompt Any idea what cell count was measured for "CC(=O)c1cc2ccccc2oc1=O" ?
### Response 9810

### Prompt Any idea what cell count was measured for CC(=O)OCC(=O)[C@H]1CCC2C3CCC4=CC(=O)CC[C@]4(C)C3CC[C@@]21C (stereo partly drawn) ?
### Response 11100

###

Items are presented alongside their recorded log fold change Tl+ flux.
- Test system: F380Y/beta2Delta
- Protocol Notes: modulators of BK channel variants, profiling panel, selectivity assay, cell-based, U2OS BacMam, thallium flux, beta subunits (AID 1259406);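 also: initial slope of Thallos dye fluorescence rise after thallium is added; log ratio against the mean of 0.3% DMSO vehicle wells on the same plate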
- Condition Summary: at 30 µM
Returns: the value as a bare number; no unit string appended.

Example results:
• CCOC(=O)c1ccc(N2CCOCC2)c(N=Cc2cc(Cl)cc(Cl)c2O)c1 = 0.0876
• O=C(Nc1ccc(OC(F)(F)F)cc1)OC1CN(C(c2ccccc2)c2ccccc2)C1 = -0.0434
• CO[C@H]1C=CO[C@@]2(C)Oc3c(C)c(O)c4c(O)c(c(C=NN5CCN(C6CCCC6)CC5)c(O)c4c3C2=O)NC(=O)C(C)=CC=C[C@H](C)[C@H](O)[C@@H](C)[C@@H](O)[C@@H](C)[C@H](OC(C)=O)[C@@H]1C = 0.0273

### Prompt Any idea what log fold change Tl+ flux was measured for CC(C)(S)C(N)C(=O)O (centres undefined) ?
### Response -0.0259

### Prompt Any idea what log fold change Tl+ flux was measured for "CN(C1CCCCC1)S(=O)(=O)c1cccs1" ?
### Response -0.0383

### Prompt Any idea what log fold change Tl+ flux was measured for C[C@H]1O[C@H](O[C@H]2[C@H](O)[C@@H](O)[C@@H](O[C@H]3[C@H](O)[C@@H](O)C(O)O[C@@H]3CO)O[C@@H]2CO)[C@H](O)[C@@H](O)[C@@H]1N[C@H]1C=C(CO)[C@@H](O)[C@H](O)[C@H]1O (some centres undefined) ?
### Response 0.0097

### Prompt Any idea what log fold change Tl+ flux was measured for O=C(OC1C[C@@H]2CC3C[C@H](C1)N2CC3=O)c1c[nH]c2ccccc12 (some centres undefined) ?
### Response 0.0379

### Prompt Any idea what log fold change Tl+ flux was measured for "CO[C@H]1/C=C/O[C@@]2(C)Oc3c(C)c(O)c4c(O)c(c(C=NN5CCN(C)CC5)c(O)c4c3C2=O)NC(=O)/C(C)=C\C=C\[C@H](C)[C@H](O)[C@@H](C)[C@@H](O)[C@@H](C)[C@H](OC(C)=O)[C@@H]1C" ?
### Response 0.125

### Prompt Any idea what log fold change Tl+ flux was measured for "COC(=O)Cc1cccc2c(=O)c3ccccc3oc12" ?
### Response 0.0497
